B1: KRT15 (parent)
chain: FGGGSTRGGSLLAGGGGFGGGSLS

Variants of: B1
Experiment: protein stability index of a GFP-peptide fusion (GPS, HEK-293T) (PSI 1-6); higher = more stable;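 note: lentivirally expressed fusions sorted by FACS into six bins by GFP to DsRed ratio, PSI derived from sequencing read proportions per bin multiplied by bin number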
Conditions: c terminus: a fixed tail appended
The threshold is inclusive: protein stability index of exactly 2 counts as 1; values below receive 0.

Mutation list | Group label
R7N | 0
L11R | 1
G20K | 1
G20N | 1
L12E | 1
S22L | 0
S22F | 1
G15C | 0
G20S | 0
F1S | 1

Values compiled from the supplement of paper PMC10567573.
